Give measured IC50 for each item. Keep answers brief.
TESTED ON: human CCR9 receptor (Homo sapiens, UniProt P51686)
EXPERIMENT: CCR9 FLIPR/FlexStation Assay (inhibition of TECK induced calcium mobilization)
EXPERIMENTAL PARAMETERS: CCR9 antagonist activity; TECK induced calcium mobilization in CCR9-Flp-CHO cells stably over expressing human CCR9; rhTECK at EC70; read-out: Binding IC50
Counter-ions that a name gives are not always drawn.

Query: Any idea what its IC50 is? The compound is CCCCc1ccc(S(=O)(=O)Nc2ccsc2C(=O)O)c(Cl)c1 [Example 19, disodium salt]
Result: ≤ 100 nM

Query: CC(C)(C)c1ccc(S(=O)(=O)Nc2ccsc2C(=O)O)c(F)c1 [Example 29, disodium salt] , same question.
Result: ≤ 100 nM

Query: Cc1cccc(C)c1-c1cccc(S(=O)(=O)Nc2ccsc2C(=O)O)c1 [Example 41, disodium salt] , same question.
Result: > 500 nM

Query: O=C(O)c1sccc1NS(=O)(=O)c1ccc(C2CCCCC2)cc1 [Example 34, disodium salt] , same question.
Result: 100 to 500 nM

----------
Give measured IC50 for each item. Keep answers brief.
TESTED ON: human CCR9 receptor (Homo sapiens, UniProt P51686)
Sequence (P51686 1-369): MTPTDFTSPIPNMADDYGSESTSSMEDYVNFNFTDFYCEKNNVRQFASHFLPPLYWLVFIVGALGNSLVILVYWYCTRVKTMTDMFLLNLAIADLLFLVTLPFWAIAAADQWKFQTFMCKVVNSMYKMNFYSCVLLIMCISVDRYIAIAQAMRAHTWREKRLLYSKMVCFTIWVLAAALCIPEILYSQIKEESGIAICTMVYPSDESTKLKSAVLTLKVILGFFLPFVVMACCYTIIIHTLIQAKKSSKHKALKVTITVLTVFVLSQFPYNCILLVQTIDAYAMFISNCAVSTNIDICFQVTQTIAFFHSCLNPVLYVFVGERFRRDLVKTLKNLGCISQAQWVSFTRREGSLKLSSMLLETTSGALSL
EXPERIMENT: CCR9 FLIPR/FlexStation Assay (inhibition of TECK induced calcium mobilization)
EXPERIMENTAL PARAMETERS: CCR9 antagonist activity; TECK induced calcium mobilization in CCR9-Flp-CHO cells stably over expressing human CCR9; rhTECK at EC70; read-out: Binding IC50
Structures can show the parent of a compound that is named as a salt.

Query: Any idea what its IC50 is? The molecule is O=C(O)c1sccc1NS(=O)(=O)c1cccc(-c2ccccc2)c1 [Example 40, disodium salt]
Result: > 0.5 µM

Query: Cc1cc(C)cc(-c2cccc(S(=O)(=O)Nc3ccsc3C(=O)O)c2)c1 [Example 42, disodium salt] , same question.
Result: > 0.5 µM

Query: "CC(C)(C)c1ccc(S(=O)(=O)Nc2ccsc2C(=O)O)c(N2CCOCC2)c1" , same question.
Result: 0.1 to 0.5 µM

Query: Cc1cc(S(=O)(=O)Nc2ccsc2C(=O)O)ccc1N1CCCC1 [Example 32, disodium salt] , same question.
Result: > 0.5 µM

Query: O=C(O)c1sccc1NS(=O)(=O)c1ccc(F)cc1C1CCCC1 [Example 35, disodium salt] , same question.
Result: > 0.5 µM

Query: CCCCCc1cc(C(C)(C)C)ccc1S(=O)(=O)Nc1ccsc1C(=O)O [Example 58, disodium salt] , same question.
Result: 0.1 to 0.5 µM

Query: CC(C)(C)c1ccc(S(=O)(=O)Nc2ccsc2C(=O)O)c(Br)c1 [Example 1, sodium salt] , same question.
Result: ≤ 0.1 µM

Query: CC(C)c1ccc(S(=O)(=O)Nc2ccsc2C(=O)O)cc1 [Example 37, disodium salt] , same question.
Result: 0.1 to 0.5 µM

Query: CCC(C)c1ccc(S(=O)(=O)Nc2ccsc2C(=O)O)cc1 (stereo not shown) [Example 14, disodium salt] , same question.
Result: ≤ 0.1 µM

Query: CCc1cc(C(C)(C)C)ccc1S(=O)(=O)Nc1ccsc1C(=O)O [Example 48, disodium salt] , same question.
Result: ≤ 0.1 µM

Query: CCc1ccccc1-c1cccc(S(=O)(=O)Nc2ccsc2C(=O)O)c1 [Example 39, disodium salt] , same question.
Result: > 0.5 µM

Query: CC(C)(C)c1ccc(S(=O)(=O)Nc2ccsc2C(=O)O)c(-c2cccc(F)c2)c1 [Example 54, disodium salt] , same question.
Result: 0.1 to 0.5 µM

Query: CC(C)(C)c1ccc(S(=O)(=O)Nc2ccsc2C(=O)O)c(Cl)c1 [Example 6, disodium salt] , same question.
Result: ≤ 0.1 µM

Query: O=C(O)c1sccc1NS(=O)(=O)c1ccc2c(c1)CCC2 [Example 33, disodium salt] , same question.
Result: > 0.5 µM

Query: CC(C)(C)c1ccc(S(=O)(=O)Nc2ccsc2C(=O)O)c(CCC2CC2)c1 [Example 57, disodium salt] , same question.
Result: ≤ 0.1 µM

Query: C=Cc1cc(C(C)(C)C)ccc1S(=O)(=O)Nc1ccsc1C(=O)O [Example 61, disodium salt] , same question.
Result: ≤ 0.1 µM

Query: CN(C)c1ccc(-c2cc(C(C)(C)C)ccc2S(=O)(=O)Nc2ccsc2C(=O)O)cc1 [Example 4, disodium salt] , same question.
Result: > 0.5 µM

Query: O=C(O)c1sccc1NS(=O)(=O)c1ccc(-n2cccn2)cc1 [Example 31, disodium salt] , same question.
Result: > 0.5 µM

Query: COCCCc1cc(C(C)(C)C)ccc1S(=O)(=O)Nc1ccsc1C(=O)O [Example 59, disodium salt] , same question.
Result: 0.1 to 0.5 µM

Query: CCCOc1ccccc1-c1cccc(S(=O)(=O)Nc2ccsc2C(=O)O)c1 [Example 44, disodium salt] , same question.
Result: > 0.5 µM

Query: CC(C)(C)c1ccc(S(=O)(=O)Nc2ccsc2C(=O)O)c(-c2cccc(Cl)c2)c1 [Example 53, disodium salt] , same question.
Result: > 0.5 µM

Query: Cc1cc(C(C)(C)C)cc(C)c1S(=O)(=O)Nc1ccsc1C(=O)O [Example 62, disodium salt] , same question.
Result: > 0.5 µM

Query: "CC(C)(C)c1ccc(S(=O)(=O)Nc2ccsc2C(=O)O)c(N2CCCCC2)c1" , same question.
Result: 0.1 to 0.5 µM

Query: CC(C)(C)c1ccc(S(=O)(=O)Nc2ccsc2C(=O)O)c(CCc2ccccc2)c1 [Example 11, disodium salt] , same question.
Result: ≤ 0.1 µM

Query: Cc1cc(C(C)(C)C)ccc1S(=O)(=O)Nc1ccsc1C(=O)O [Example 13, disodium salt] , same question.
Result: ≤ 0.1 µM

Query: Cc1ccccc1-c1cccc(S(=O)(=O)Nc2ccsc2C(=O)O)c1 [Example 22, disodium salt] , same question.
Result: > 0.5 µM

Query: O=C(O)c1sccc1NS(=O)(=O)c1c(Cl)cc(C(F)(F)F)cc1Cl [Example 51, disodium salt] , same question.
Result: > 0.5 µM

Query: CC(C)(C)c1ccc(S(=O)(=O)Nc2c(C(=O)O)sc3ccc(F)cc23)cc1 [Example 25, disodium salt] , same question.
Result: > 0.5 µM

Query: CC(C)(C)c1ccc(S(=O)(=O)Nc2ccsc2C(=O)O)c(-c2cncnc2)c1 [Example 5, disodium salt] , same question.
Result: > 0.5 µM

Query: CC(C)(C)c1ccc(S(=O)(=O)Nc2ccsc2C(=O)O)c(-c2ccc(Cl)cc2)c1 [Example 2, disodium salt] , same question.
Result: > 0.5 µM

Query: CC(C)(C)c1ccc(S(=O)(=O)Nc2ccsc2C(=O)O)c(-c2ccccc2)c1 [Example 46, disodium salt] , same question.
Result: > 0.5 µM
